Test system: KRAS PDC tumor spheroids (HUVEC+MSC), viability
Assay: Anticancer human tumor 254851-301-R-J1-PDC patient-derived colon carcinoma cell line growth inhibition [KRAS2]
Settings: second compound 3.16 µM; first compound 0.01 µM; stronger effect = lower value
Observed Property: viability, T/C

Worked cases, viability, T/C given:
In: For CC1COCCN1c1cc(-c2ccnn2C)c2ccnc(-c3ccn[nH]3)c2n1 (configuration not stated) + C=CC(=O)N1CCN(c2nc(OCC3CCCN3C)nc3c2CCN(c2cccc4cccc(C)c24)C3)CC1CC#N , what is its reported viability, T/C?
Out: 57.6%

In: For CC(=O)Nc1cccc(-n2c(=O)n(C3CC3)c(=O)c3c(Nc4ccc(I)cc4F)n(C)c(=O)c(C)c32)c1 + CC1OCC2(CCN(c3cnc(Sc4ccnc(N)c4Cl)c(N)n3)CC2)C1N , what is its reported viability, T/C?
Out: 2.24%

In: For CN(C)C/C=C/C(=O)Nc1cc2c(Nc3ccc(F)c(Cl)c3)ncnc2cc1O[C@H]1CCOC1 + COc1cc2nc(C)nc(NC(C)c3cc(N)cc(C(F)(F)F)c3)c2cc1OC1CCOC1 , what is its reported viability, T/C?
Out: 78.7%

In: For CC(=O)Nc1cccc(-n2c(=O)n(C3CC3)c(=O)c3c(Nc4ccc(I)cc4F)n(C)c(=O)c(C)c32)c1 + C=CC(=O)N1CCN(c2nc(=O)n(-c3c(C)ccnc3C(C)C)c3nc(-c4c(O)cccc4F)c(F)cc23)C(C)C1 , what is its reported viability, T/C?
Out: 34%

Further cases:
In: For CC(=O)OC12COC1CC(O)C1(C)C(=O)C(O)C3=C(C)C(OC(=O)C(O)C(NC(=O)OC(C)(C)C)c4ccccc4)CC(O)(C(OC(=O)c4ccccc4)C21)C3(C)C (configuration not stated) + CNCc1ccccc1-c1csc(C(C)Nc2nc(C)nc3cc(OC)c(OC)cc23)c1 , what is its reported viability, T/C?
Out: 77%

In: For CC(=O)OC12COC1CC(O)C1(C)C(=O)C(O)C3=C(C)C(OC(=O)C(O)C(NC(=O)OC(C)(C)C)c4ccccc4)CC(O)(C(OC(=O)c4ccccc4)C21)C3(C)C (configuration not stated) + C=CC(=O)N1CCN(c2nc(=O)n(-c3c(C)ccnc3C(C)C)c3nc(-c4c(O)cccc4F)c(F)cc23)C(C)C1 , what is its reported viability, T/C?
Out: 105%

In: For CC(C)n1nc(-c2ccc3oc(N)nc3c2)c2c(N)ncnc21 + CC1OCC2(CCN(c3cnc(Sc4ccnc(N)c4Cl)c(N)n3)CC2)C1N , what is its reported viability, T/C?
Out: 63.1%

----------
System: KRAS PDC tumor spheroids (HUVEC+MSC), viability
Assay: Anticancer human tumor 254851-301-R-J1-PDC cell line growth inhibition [KRAS2];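 note: spheroids exposed to compounds for seven days before readout; 100% = DMSO vehicle control luminescence of the spheroids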
Conditions: second compound 10 µM; first compound 1 µM; stronger effect = lower value
Observed Property: viability, T/C (%)
Respond numerically; units are % and should not be typed.

Worked cases, viability, T/C given:
In: For O=C(c1cc(Cc2n[nH]c(=O)c3ccccc23)ccc1F)N1CCN(C(=O)C2CC2)CC1 + CC1OCC2(CCN(c3cnc(Sc4ccnc(N)c4Cl)c(N)n3)CC2)C1N , what is its reported viability, T/C?
Out: 59.9

In: For Cn1nccc1Nc1nccc(-c2cc3c(s2)C(C)(C)N(CCN2CCOCC2)C3=O)n1 + COc1cc2nc(C)nc(NC(C)c3cc(N)cc(C(F)(F)F)c3)c2cc1OC1CCOC1 , what is its reported viability, T/C?
Out: 31.1

In: For COc1cc2nccc(Oc3ccc(NC(=O)C4(C(=O)Nc5ccc(F)cc5)CC4)cc3)c2cc1OC + CC1OCC2(CCN(c3cnc(Sc4ccnc(N)c4Cl)c(N)n3)CC2)C1N , what is its reported viability, T/C?
Out: 68.1

In: For COC(=O)c1ccc2c(C(=Nc3ccc(N(C)C(=O)CN4CCN(C)CC4)cc3)c3ccccc3)c(O)[nH]c2c1 + C=CC(=O)N1CCN(c2nc(=O)n(-c3c(C)ccnc3C(C)C)c3nc(-c4c(O)cccc4F)c(F)cc23)C(C)C1 , what is its reported viability, T/C?
Out: 87.4

In: For CC(C)NCC(C(=O)N1CCN(c2ncnc3c2C(C)CC3O)CC1)c1ccc(Cl)cc1 (stereo not given) + CC1OCC2(CCN(c3cnc(Sc4ccnc(N)c4Cl)c(N)n3)CC2)C1N , what is its reported viability, T/C?
Out: 60.9

In: For O=C(c1cc(Cc2n[nH]c(=O)c3ccccc23)ccc1F)N1CCN(C(=O)C2CC2)CC1 + C=CC(=O)N1CCN(c2nc(=O)n(-c3c(C)ccnc3C(C)C)c3nc(-c4c(O)cccc4F)c(F)cc23)C(C)C1 , what is its reported viability, T/C?
Out: 110

Further cases:
In: For CCNC(=O)CC1N=C(c2ccc(Cl)cc2)c2cc(OC)ccc2-n2c(C)nnc21 (stereo not given) + CC1OCC2(CCN(c3cnc(Sc4ccnc(N)c4Cl)c(N)n3)CC2)C1N , what is its reported viability, T/C?
Out: 56.5

In: For COc1cc(Nc2ncc3c(n2)-c2ccc(Cl)cc2C(c2c(F)cccc2OC)=NC3)ccc1C(=O)O + CNCc1ccccc1-c1csc(C(C)Nc2nc(C)nc3cc(OC)c(OC)cc23)c1 , what is its reported viability, T/C?
Out: 0.1

In: For CCN1CCN(Cc2ccc(Nc3ncc(F)c(-c4cc(F)c5nc(C)n(C(C)C)c5c4)n3)nc2)CC1 + C=CC(=O)N1CCN(c2nc(=O)n(-c3c(C)ccnc3C(C)C)c3nc(-c4c(O)cccc4F)c(F)cc23)C(C)C1 , what is its reported viability, T/C?
Out: 56

----------
Test system: KRAS PDC tumor spheroids (HUVEC+MSC), viability
Assay: Anticancer human tumor 254851-301-R-J1-PDC cell line growth inhibition [KRAS2]; active means viability on the fitted dose curve at most 10% of control; inactive means the rest;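 note: spheroids exposed to compounds for seven days before readout; 100% = DMSO vehicle control luminescence of the spheroids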
Details: second compound 3.16 µM; first compound 10 µM
Can you answer with just one of these options? active, inactive

Sample answers from the record:
In: Dear colleague, could you share the recorded outcome for O=C(c1cc(Cc2n[nH]c(=O)c3ccccc23)ccc1F)N1CCN(C(=O)C2CC2)CC1 + CNCc1ccccc1-c1csc(C(C)Nc2nc(C)nc3cc(OC)c(OC)cc23)c1 when you have a moment?
Out: inactive

In: Dear colleague, could you share the recorded outcome for COC(=O)c1ccc2c(C(=Nc3ccc(N(C)C(=O)CN4CCN(C)CC4)cc3)c3ccccc3)c(O)[nH]c2c1 + COc1cc2nc(C)nc(NC(C)c3cc(N)cc(C(F)(F)F)c3)c2cc1OC1CCOC1 when you have a moment?
Out: active

In: Dear colleague, could you share the recorded outcome for O=C(c1cc(Cc2n[nH]c(=O)c3ccccc23)ccc1F)N1CCN(C(=O)C2CC2)CC1 + C=CC(=O)N1CCN(c2nc(=O)n(-c3c(C)ccnc3C(C)C)c3nc(-c4c(O)cccc4F)c(F)cc23)C(C)C1 when you have a moment?
Out: inactive

In: Dear colleague, could you share the recorded outcome for O=C(c1cc(Cc2n[nH]c(=O)c3ccccc23)ccc1F)N1CCN(C(=O)C2CC2)CC1 + C=CC(=O)N1CCN(c2nc(OCC3CCCN3C)nc3c2CCN(c2cccc4cccc(C)c24)C3)CC1CC#N when you have a moment?
Out: inactive

Now let's try a different one.
In: Dear colleague, could you share the recorded outcome for CC(C)NCC(C(=O)N1CCN(c2ncnc3c2C(C)CC3O)CC1)c1ccc(Cl)cc1 (stereo not given) + COc1cc2nc(C)nc(NC(C)c3cc(N)cc(C(F)(F)F)c3)c2cc1OC1CCOC1 when you have a moment?
Out: inactive

----------
Test system: KRAS PDC tumor spheroids (HUVEC+MSC), viability
Experiment: Anticancer human tumor 254851-301-R-J1-PDC cell line growth inhibition [KRAS2];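 note: spheroids exposed to compounds for seven days before readout; 100% = DMSO vehicle control luminescence of the spheroids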
Details: second compound 0.316 µM; first compound 0.0316 µM; stronger effect = lower value
Observed Property: viability, T/C (%)
Respond numerically; units are % and should not be typed.

Worked cases, viability, T/C given:
In: For COc1cc(Nc2ncc3c(n2)-c2ccc(Cl)cc2C(c2c(F)cccc2OC)=NC3)ccc1C(=O)O + CC1OCC2(CCN(c3cnc(Sc4ccnc(N)c4Cl)c(N)n3)CC2)C1N , what is its reported viability, T/C?
Out: 81.1

In: For CC1OCC2(CCN(c3cnc(Sc4ccnc(N)c4Cl)c(N)n3)CC2)C1N (stereo unspecified) + C=CC(=O)N1CCN(c2nc(=O)n(-c3c(C)ccnc3C(C)C)c3nc(-c4c(O)cccc4F)c(F)cc23)C(C)C1 , what is its reported viability, T/C?
Out: 78

Further cases:
In: For COC(=O)c1ccc2c(C(=Nc3ccc(N(C)C(=O)CN4CCN(C)CC4)cc3)c3ccccc3)c(O)[nH]c2c1 + CC1OCC2(CCN(c3cnc(Sc4ccnc(N)c4Cl)c(N)n3)CC2)C1N , what is its reported viability, T/C?
Out: 88.3

In: For COc1cc2nccc(Oc3ccc(NC(=O)C4(C(=O)Nc5ccc(F)cc5)CC4)cc3)c2cc1OC + COc1cc2nc(C)nc(NC(C)c3cc(N)cc(C(F)(F)F)c3)c2cc1OC1CCOC1 , what is its reported viability, T/C?
Out: 85.9

In: For CC1(C)CCC(CN2CCN(c3ccc(C(=O)NS(=O)(=O)c4ccc(NCC5CCOCC5)c([N+](=O)[O-])c4)c(Oc4cnc5[nH]ccc5c4)c3)CC2)=C(c2ccc(Cl)cc2)C1 + COc1cc2nc(C)nc(NC(C)c3cc(N)cc(C(F)(F)F)c3)c2cc1OC1CCOC1 , what is its reported viability, T/C?
Out: 86.5
